Experiment: qHTS assay for small molecule agonists of the antioxidant response element (ARE) signaling pathway (AID 743202); on activation: on the % scale 0 is the no-effect control and ±100 the full control effect
Conditions: HepG2 ARE-bla reporter, beta-lactamase FRET, 16 h; series mostly up to 73.3 µM
Inconclusive results are not listed. Active and inactive are the calls of the source. The call rests on the fitted dose curve; in most records, active means well fitted activation curve with a large enough effect in the signal ratio in the repeat runs (not every such curve was filed as active); inconclusive means weak or mixed curves, or effect the other way; inactive means no such curve, though single readings can be large or run the other way; the % refers to the signal ratio.
Write down one outcome, taken from 1 (active), -1 (inactive)

As a guide, the following entries are already answered.
CCC(C(=O)OCCN(CC)CC)c1ccccc1 (stereo not given) = -1
C[C@]12CCC(=O)C=C1C=C[C@@H]1[C@@H]2CC[C@@]2(C)[C@H]1CC[C@@]21CCC(=O)O1 = 1
CC(=O)N(c1onc(C)c1C)S(=O)(=O)c1ccc(N)cc1 = -1
COC(=O)[C@@H]1CC2=CC(=O)CC[C@]2(C)[C@@]23O[C@@H]2C[C@@]2(C)[C@@H](CC[C@@]24CCC(=O)O4)[C@H]13 = -1
O=C(CCC1CCN(Cc2ccccc2)CC1)c1ccc2c(c1)NCCCC2 = 1

In: Short answer needed: outcome of this test for Cc1ccccc1N1C(=O)c2cc(S(N)(=O)=O)c(Cl)cc2NC1C (stereo not given) ?
Out: -1

In: Can you look up the reported call for "Nc1nccs1" for me?
Out: -1

In: What did the test return for "CCn1cc(C(=O)O)c(=O)c2cc(F)c(N3CCNCC3)nc21" ?
Out: -1

In: What classification did "NC(=O)N(O)[C@@H]1C=C[C@H](Oc2cccc(Oc3ccc(F)cc3)c2)C1" end up with in this test?
Out: 1

In: # lookup: test call for "O=C(O)c1c(O)c(-c2ccccc2)nc2ccccc12"
Out: -1

====

Test: qHTS RealTime-Glo MT Cell Viability Assay in HepG2 cells - 32 hour (AID 1224877); further: nearly all actives have a fitted effect of over 55% in size
Details: RealTime-Glo luminescence; series mostly up to 76.8 µM
Inconclusive results are not listed. The source made the active and inactive calls. Calls follow the shape of the dose curve; as a rule, active = well fitted cell-killing curve with a large enough effect in the repeat runs; inconclusive = weak or mixed curves; inactive = flat fitted curve, though single readings scatter.
Give one outcome, nothing more. List: 1 (yes) for active, 0 (no) for inactive

Consider the worked cases shown below.
CCn1cc(C(=O)O)c(=O)c2cc(F)c(N3CCNCC3)nc21 = 0 (no)
CCC(C)(C)C1CCC(O)CC1 (stereo not given) = 0 (no)
COCCOC = 0 (no)
C[Si]1(C)O[Si](C)(C)O[Si](C)(C)O1 = 0 (no)
N#C[C@@H]1C[C@@H]2C[C@@H]2N1C(=O)[C@@H](N)C12CC3CC(CC(O)(C3)C1)C2 = 0 (no)
C[C@@H]1C[C@H]2[C@@H]3CCC4=CC(=O)C=C[C@]4(C)[C@@]3(F)[C@@H](O)C[C@]2(C)[C@H]1C(=O)CO = 0 (no)
Cc1nc2ccccn2c(=O)c1CCN1CCC(C(=O)c2ccc(F)cc2)CC1 = 0 (no)
O=C(O)Cc1ccc(-c2ccccc2)cc1 = 0 (no)

In: Could you kindly confirm the outcome this assay logged for "CCC(=O)OC/C=C/c1ccccc1" ?
Out: 0 (no)

In: What did this assay record as the result for "CC(C)(CCl)c1ccccc1" ?
Out: 0 (no)

In: Test call for this molecule, please: "CCc1cccc(N(C)C(N)=Nc2cccc3ccccc23)c1"
Out: 0 (no)

In: Recorded test call requested for "NC(=O)N(O)[C@@H]1COc2cc(OCc3ccccc3)ccc21"
Out: 0 (no)

In: Record lookup: outcome of this test for "O=C(N[C@@H](c1ccccc1)[C@@H]1CCCCN1)c1cccc(C(F)(F)F)c1Cl" ?
Out: 1 (yes)

Taken from PubChem BioAssay (Tox21).
